system: MS2 coat protein; experiment: apparent KD of MS2 coat protein; designed switch direction (-1 OFF switch, 1 ON switch): -1; higher = weaker reporter binding; settings: Eterna round: R95; input ligand: none
readout-type: apparent KD of MS2 coat protein (nM)
Provide the reading as a plain figure in nM.

Known apparent KD of MS2 coat protein results, listed for orientation:
- item-sequence: "UCAUGUUUAGAGGAUAUGAUUACUUUAGAGUAAUCAGAAGGCUAGACAUGAGGAUCACCCAUGUCAUAACAUGA [Exclusion 6 - B - 15:a] (puzzle: Exclusion 6)"
  apparent KD of MS2 coat protein (nM): 54.3
- item-sequence: "AAGAGCGUAGGAUAUACAUGAGGAUCACCCAUGUGAGGAGGGAAAAGGAGGUGUGGAAGUAGAAGGACGGAGUG [JR_Exclu3_Sub080] (puzzle: Exclusion 3)"
  apparent KD of MS2 coat protein (nM): 36.5
- item-sequence: "AAAUACAAGCAAAGAUCUUACAUGAGGAUCACCCAUGUGUUCGUCUUAUAAAGUACUAUCACGAAAGUGAUAGUACA [Sensor 3, v1 - 32] (puzzle: Sensor v3, turn-off variant 1)"
  apparent KD of MS2 coat protein (nM): 15.4
- item-sequence: "CUGGUCCGAGGAUAUAUUAUGUGAUACAUGAGGAUCACCCAUGUUAUAUAAUGGAUGUAAAUAGAAGGCGGACUAG [JL-ex5-3.16] (puzzle: Exclusion 5)"
  apparent KD of MS2 coat protein (nM): 44
- item-sequence: "GAGGGACAUGAGGAUCACCCAUGUGAGGAUAUGGAGAGGAGGAGGGAGGAGGAGGAGGCCAGAAGGCGCAAGAA [THE BEST I guess] (puzzle: Exclusion 1)"
  apparent KD of MS2 coat protein (nM): 46
- item-sequence: "GAAAAGGUAGGAUAUACGAAAAAAAAGGGUAGAAAUAAAACACAUGAGGAUCACCCAUGUAGAAGGACCAAAAG [salish99_ex2_r3_076] (puzzle: Exclusion 2)"
  apparent KD of MS2 coat protein (nM): 15.5

Need apparent KD of MS2 coat protein, item GAAGAAGAGAGAAUAGAAAACAUGAGGAUCACCCAUGUGAGAAGAUGAGGGUGUAGCAGGCUUUUUGCUCGUCUUAU (puzzle: Sensor v3, turn-off variant 1)
31.2

Need apparent KD of MS2 coat protein, item GAUAAGGUAGGAUAUACGAAUAAAUAGGGUAGUAAUAAUACACAUGAGGAUCACCCAUGUAGAAGGACCAAUAG [Mat - Exclusion 2 - Mod of my Tesla design - D41] (puzzle: Exclusion 2)
21.4

Need apparent KD of MS2 coat protein, item AAGUACCGUCACGAUAGUGAUGGUACAACAAGCAGUGAAACAUGAGGAUCACCCAUGUCCUCAAUUGCUCGUCUUAU [Sensor 3 - 74] (puzzle: Sensor v3, turn-off variant 2)
37.5

Need apparent KD of MS2 coat protein, item AGAAGACAUGAGGAUCACCCAUGUAAGGAUAUCGAAGGUAUGAGAGGAAAGAGGUUAACGAGAAGGUACAGGUG [JR_Exclu1_Sub098] (puzzle: Exclusion 1)
130

Need apparent KD of MS2 coat protein, item GAUUAUGCGAGCUUUAGGGACAUGAGGAUCACCCAUGUUCGUCUUAUUAGUCUGGGUACACUGACAUACCUAAAUCU [JMF 71] (puzzle: Sensor v3, turn-off variant 1)
25.4
